experiment: Tested for the neurotoxicity in mouse rotarod test was reported 2 hr after po dosing
Assay type: toxicity, organism-based
experimental-context: in vivo
measured-quantity: TD50 at 2 h

Ask: # query: TD50 at 2 h of entry CN(N)c1nnc(-c2ccc(-c3ccccc3)cc2)s1
Result: > 1000 mg/kg

Data provenance is ChEMBL document CHEMBL1123753.
